- target_or_system: Arabidopsis thaliana HPPD "SEQ ID No. 10" (Arabidopsis thaliana, UniProt P93836)
- Sequence (P93836 with tags, fused parts or gaps): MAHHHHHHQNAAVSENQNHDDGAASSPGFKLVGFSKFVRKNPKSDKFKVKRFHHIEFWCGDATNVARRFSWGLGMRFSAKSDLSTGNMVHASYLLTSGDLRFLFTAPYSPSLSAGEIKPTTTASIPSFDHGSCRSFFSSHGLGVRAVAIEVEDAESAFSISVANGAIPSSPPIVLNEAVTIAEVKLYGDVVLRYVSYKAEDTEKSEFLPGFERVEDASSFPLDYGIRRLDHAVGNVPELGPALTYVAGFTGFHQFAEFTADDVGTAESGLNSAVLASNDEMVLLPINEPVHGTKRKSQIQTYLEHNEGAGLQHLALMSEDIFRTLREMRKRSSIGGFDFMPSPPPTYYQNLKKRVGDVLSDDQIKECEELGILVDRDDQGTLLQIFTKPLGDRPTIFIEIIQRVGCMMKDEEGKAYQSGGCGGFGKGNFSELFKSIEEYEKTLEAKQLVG
- protocol: HPPD activity in presence of HPPD inhibitors (pI50, % inhibition)
outcome_measure: IC50 (µM)

> print(dat)
                                   compound  outcome.measure  measured
1  Cc1nn(C)c(O)c1C(=O)c1ccc(C(F)(F)F)cc1S(C)(=O)=O [Pyrasulfotole]             IC50      3.98

###

- target_or_system: Kordia algicida HPPD "SEQ ID No. 5" (FMP27e) (Kordia algicida, UniProt A9DQF2)
- Sequence (A9DQF2 entry or part of it): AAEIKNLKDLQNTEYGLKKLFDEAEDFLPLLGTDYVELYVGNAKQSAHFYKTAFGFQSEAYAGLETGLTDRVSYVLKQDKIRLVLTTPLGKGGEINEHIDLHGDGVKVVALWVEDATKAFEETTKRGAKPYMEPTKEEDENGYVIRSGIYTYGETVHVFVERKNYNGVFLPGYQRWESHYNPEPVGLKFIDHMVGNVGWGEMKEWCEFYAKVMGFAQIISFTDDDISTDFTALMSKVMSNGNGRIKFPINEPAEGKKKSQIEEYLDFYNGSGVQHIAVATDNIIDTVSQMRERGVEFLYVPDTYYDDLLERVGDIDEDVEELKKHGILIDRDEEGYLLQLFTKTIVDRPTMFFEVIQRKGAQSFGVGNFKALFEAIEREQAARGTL
- protocol: HPLC assay of HPPD in vitro kinetic properties
- Type: biochemical
- run_conditions: read-out: Ki
outcome_measure: Ki (µM)

> print(dat)
                                   molecule  outcome.measure  measured
1  CS(=O)(=O)c1cc(C(F)(F)F)ccc1C(=O)C(C#N)C(=O)C1CC1 (stereo not shown) [Diketonitrile]               Ki        15

###

- target_or_system: UniProtKB A9DQF2
- protocol: biochemical
outcome_measure: IC50 (µM)

> print(dat)
                                   molecule  target.or.system  outcome.measure  measured
1  Cc1nn(C)c(O)c1C(=O)c1ccc(C(F)(F)F)cc1S(C)(=O)=O [Pyrasulfotole]  UniProtKB A9DQF2             IC50      12.6

###

- target_or_system: Kordia algicida HPPD "SEQ ID No. 5" (Kordia algicida, UniProt A9DQF2)
- protocol: biochemical
- run_conditions: read-out: pI50 (converted)
IC50 overview
outcome_measure: IC50 (µM)

> print(dat)
                                   compound  measurement.units  limit.sign  measured
1  COCCOCc1nc(C(F)(F)F)ccc1C(=O)C1=C(O)C2CCC(C2)C1=O (stereo not shown)                 µM           =        10
2  CS(=O)(=O)c1ccc(C(=O)C2C(=O)CCCC2=O)c(Cl)c1COCC1CCCO1 (stereo not shown)                 µM           =      1.58
3  Cc1ccc(C(=O)COc2c(C(=O)c3ccc(Cl)c(C)c3Cl)c(C)nn2C)cc1                 µM           <      2.51
4  CS(=O)(=O)c1cc(C(F)(F)F)ccc1C(=O)C(C#N)C(=O)C1CC1 (stereo not shown)                 µM           =         2
